// provenance: patent US20260234242A1

# TARGET ENTITY: T1, his-tagged human CDH6 extracellular region protein (hCDH6 ECD-his) (human, UniProt P55285 19-615)
# T1 construct: also called Human CDH6-his; hCDH6-his; not shown: his tag
# T1 sequence: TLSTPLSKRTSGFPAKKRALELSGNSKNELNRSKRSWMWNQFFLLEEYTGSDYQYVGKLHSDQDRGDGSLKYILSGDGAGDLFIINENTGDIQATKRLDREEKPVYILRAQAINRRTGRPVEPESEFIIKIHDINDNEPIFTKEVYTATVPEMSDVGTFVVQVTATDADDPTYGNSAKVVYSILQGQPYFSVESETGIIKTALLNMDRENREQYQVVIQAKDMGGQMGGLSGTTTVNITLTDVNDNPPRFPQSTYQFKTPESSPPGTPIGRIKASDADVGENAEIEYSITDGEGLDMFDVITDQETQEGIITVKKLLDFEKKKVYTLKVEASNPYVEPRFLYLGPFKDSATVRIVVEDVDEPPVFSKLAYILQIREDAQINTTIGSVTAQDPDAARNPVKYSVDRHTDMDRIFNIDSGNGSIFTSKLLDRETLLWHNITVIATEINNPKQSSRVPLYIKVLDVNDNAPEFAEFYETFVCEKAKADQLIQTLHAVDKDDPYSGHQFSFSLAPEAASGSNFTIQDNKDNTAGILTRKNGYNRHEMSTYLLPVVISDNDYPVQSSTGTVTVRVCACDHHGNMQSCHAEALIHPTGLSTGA
# PROTOCOL TEXT: ELISA, coated antigen
Collected Max OD450 values appear next to each entry.
ENDPOINT: Max OD450 (OD450)

1) hCDH6-14-H3L3 (antibody, V domains shown, Humanized) VH: EIQLVQSGAEVKKPGASVKVSCKASGYTFTDNYINWVRQAPGQRLEWMGWIYPGTGNSYYNEKFKGRVTLTVDTSASTAYMELSSLRSEDTAVYYCASSYGDSFDYWGQGTTVTVSS VL: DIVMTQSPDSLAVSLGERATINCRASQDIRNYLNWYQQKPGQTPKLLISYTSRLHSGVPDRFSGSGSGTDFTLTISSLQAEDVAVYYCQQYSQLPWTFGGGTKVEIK: 2.56
2) hCDH6-1-H2L3 (antibody, V domains shown, Humanized) VH: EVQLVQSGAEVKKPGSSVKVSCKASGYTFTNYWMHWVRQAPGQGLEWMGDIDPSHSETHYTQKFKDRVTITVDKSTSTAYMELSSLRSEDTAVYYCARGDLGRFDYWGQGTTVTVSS VL: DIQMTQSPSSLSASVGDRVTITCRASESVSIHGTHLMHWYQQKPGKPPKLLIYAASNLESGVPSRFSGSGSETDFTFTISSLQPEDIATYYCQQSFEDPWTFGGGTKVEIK: 2.61
3) hCDH6-14-H6L1 (antibody, V domains shown, Humanized) VH: EVQLVQSGAEVKKPGASVKVSCKASGYTFTDNYINWVRQAPGQRLEWMGWIYPGTGNSYYNEKFKGRVTITVDTSASTAYMELSSLRSEDTAVYLCASSYGDSFDYWGQGTTVTVSS VL: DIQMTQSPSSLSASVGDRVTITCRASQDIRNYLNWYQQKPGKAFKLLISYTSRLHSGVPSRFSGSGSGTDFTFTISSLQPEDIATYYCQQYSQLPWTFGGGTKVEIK: 2.7
